Source of measurements: PubChem BioAssay AID1159580

experiment-description: chemical genetic growth profiling, strain panel (AID 1159580);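 further: tested at 20 µM; growth read once vehicle control cultures reached saturation at 30 °C; 1 = growth at the plate median or of vehicle wells; lower values mean less growth of the strain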
particulars: S. cerevisiae deletion strains, growth OD, locus YMR129W, active compounds read low
Screen size: about 5,500 compounds; about 2,000 (36%) were called active. Roughly 18% stayed inconclusive and do not appear here. This is one part of the list.
experimental-readout: normalized growth
Reply with the value as a number alone.

Below, each entry is followed by its recorded normalized growth result.
O=C(O)[C@H](O)[C@@](O)(Cc1ccc(O)cc1)C(=O)O = 1.01
COc1cc2c(cc1OC)[C@@]13CCN4CC5=CCOC6CC(=O)N2C1[C@H]6[C@H]5C[C@H]43 (stereo not given in full) = 0.997
COC(=O)C[C@H]1C(C)(C)[C@@H](O)[C@@H]2CC3=C4C=C(OC)O[C@@H](c5ccoc5)[C@]4(C)CCC3[C@@]1(C)C2=O (stereo not given in full) = 0.997
O=C(NC1CCCCC1)NC1CCCCC1 = 0.977

May I ask what normalized growth has been recorded for `CC1=NN(c2ccccc2)C(=O)C1` ?
0.996
